Reference source: the supplement of paper PMC10724198

Test system: Saccharomyces cerevisiae
Assay: protein stability index of tFT-peptide fusion (C-terminal peptide) (PSI (0-1 scale)); higher = more stable (slower turnover)
Details: genetic background: wild type; temperature: 30 C
Threshold check on protein stability index: at or above 0.7 gives fulfilled, strictly below gives not fulfilled.

# count of solved cases: 6
>>> df
   sequence_chain  discrete_label
0    TRKQSVIRIRMR   not fulfilled
1    GREEKQGAENRT   not fulfilled
2    RVCYVYIGVTMH   not fulfilled
3    LLAVIVWIVPPA   not fulfilled
4    TFREMPESIGNG   not fulfilled
5    PQPNSSEPTSQK       fulfilled

Prompt: Can ISEGSSRFRTSL be said to have protein stability index at or above 0.7?
Completion: not fulfilled

Prompt: Can FLVSPFTLFPFS be said to have protein stability index at or above 0.7?
Completion: fulfilled

====

Tested on: Saccharomyces cerevisiae
Experiment: protein stability index of tFT-peptide fusion (C-terminal peptide) (PSI (0-1 scale)); higher = more stable (slower turnover)
Details: genetic background: wild type; temperature: 30 C
Metric Name: protein stability index
Hey, just send me the number, nothing else.

Record excerpt, results attached:
   sequence_chain              metric_name  experimental_value
0    PPPLPRHLRAPP  protein stability index               0.689
1    TLFTRRSIMKGN  protein stability index                0.62
2    FPPLLASPPPSP  protein stability index               0.705

Prompt: Look up protein stability index of GWSFDLVSAQWG and report it.
Completion: 0.817

Prompt: Look up protein stability index of SRPGRWRLYYVS and report it.
Completion: 0.401

Prompt: Look up protein stability index of PYPNAQRIEIKF and report it.
Completion: 0.651

Prompt: Look up protein stability index of EIRKGGVRSTSN and report it.
Completion: 0.668

Prompt: Look up protein stability index of VDDIIGIRKRNT and report it.
Completion: 0.691

Prompt: Look up protein stability index of GRTFPLATAPFL and report it.
Completion: 0.687

Prompt: Look up protein stability index of GGVDNWKAIRGI and report it.
Completion: 0.737

Prompt: Look up protein stability index of PLLSYSPPAPPP and report it.
Completion: 0.664

Prompt: Look up protein stability index of PLPPSAPPLPPS and report it.
Completion: 0.778

Prompt: Look up protein stability index of PLPDPPPTPSGT and report it.
Completion: 0.682

====

Test system: Saccharomyces cerevisiae;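 note: PSI is a weighted mean of sequencing reads over stability bins, variants kept only with over 10 reads, mCherry proximal and sfGFP distal, peptide attached via GGGS linker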
Assay: protein stability index of tFT-peptide fusion (C-terminal peptide) (PSI (0-1 scale)); higher = more stable (slower turnover)
Conditions: genetic background: wild type; temperature: 30 C
Attribute: protein stability index
Hey, just send me the number, nothing else.

Record excerpt, results attached:
>>> print(df.to_string())
   sequence_chain  experimental_value
0    PLPPLPPPLPAP               0.705
1    QLGGKVGNCHVV                0.75
2    GGSRVSGVVGKG               0.608
3    VLFFLVTSSVYF               0.269
4    VAPAHPPHHRNL               0.663

Prompt: Look up protein stability index of GVFVVVGEASVH and report it.
Completion: 0.421

Prompt: Look up protein stability index of AAQDTRAHYRTR and report it.
Completion: 0.704

Prompt: Look up protein stability index of LGAMTQEADGTG and report it.
Completion: 0.639

Prompt: Look up protein stability index of GGGARCGGGCRV and report it.
Completion: 0.684

Prompt: Look up protein stability index of SPPLSFPTLQLF and report it.
Completion: 0.625

Prompt: Look up protein stability index of VFGRQVRVNGGS and report it.
Completion: 0.707

Prompt: Look up protein stability index of ISLGVDFSFCSL and report it.
Completion: 0.701

Prompt: Look up protein stability index of FLFFRFLVGCCF and report it.
Completion: 0.373

Prompt: Look up protein stability index of SRFPPYALAHRP and report it.
Completion: 0.716

Prompt: Look up protein stability index of PPPPSCPHSAPL and report it.
Completion: 0.637

Prompt: Look up protein stability index of VSVGEDGNRPTC and report it.
Completion: 0.645

Prompt: Look up protein stability index of VDTNIRRTATYS and report it.
Completion: 0.729

Prompt: Look up protein stability index of GGFFLFAVGVGN and report it.
Completion: 0.627

Prompt: Look up protein stability index of PPFSTPFLPPSS and report it.
Completion: 0.727

Prompt: Look up protein stability index of PSPPLPHLLLLP and report it.
Completion: 0.693

Prompt: Look up protein stability index of PRSPPRSLFFPC and report it.
Completion: 0.648

Prompt: Look up protein stability index of SSPPPPVPPPPS and report it.
Completion: 0.725

Prompt: Look up protein stability index of PGGTDGYSGLEK and report it.
Completion: 0.689

Prompt: Look up protein stability index of SPAPQLFLPPPV and report it.
Completion: 0.665

Prompt: Look up protein stability index of LRAWAAPPPHGL and report it.
Completion: 0.727
